procedure-details: in vivo
Design: species or system mice
stated-conditions: male, NODSCID 1L2RγKO, mouse, iv, total radioactivity, Stomach uptake
outcome-measure: tissue uptake at 1 h (%ID/g)
Express it in %ID/g; write the number only.

INSERT INTO measurements (compound, unit_spec, measured_number) VALUES
  ('O=C(O)CCC[C@H](NC(=O)N[C@@H](CCCCNC(=O)[C@H](Cc1c2ccccc2cc2ccccc12)NC(=O)[C@H]1CC[C@H](CNC(=O)[C@H](CCCCNC(=O)CN2CCN(CC(=O)O)CCN(CC(=O)O)CCN(CC(=O)O)CC2)NC(=O)CNC(=O)CCCc2ccc(Cl)cc2)CC1)C(=O)O)C(=O)O [177Lu-HTK03153, metal not drawn]', '%ID/g', 0.89);

State the recorded tissue uptake at 1 h for this entry: O=C(O)CCC[C@H](NC(=O)N[C@@H](CCCCNC(=O)[C@H](Cc1c2ccccc2cc2ccccc12)NC(=O)[C@H]1CC[C@H](CNC(=O)CN2CCN(CC(=O)O)CCN(CC(=O)O)CCN(CC(=O)O)CC2)CC1)C(=O)O)C(=O)O [177Lu-HTK03149, metal not drawn]
0.1

====

procedure-details: in vivo
stated-conditions: male, NODSCID 1L2RγKO, mouse, iv, total radioactivity, Kidneys uptake
Define the label as 1 (yes) when tissue uptake at 1 h is strictly less than 4 %ID/g and as 0 (no) in all remaining cases.

Worked examples, 3 compounds total:
INSERT INTO results (compound, label) VALUES
  ('O=C(O)CN1CCN(CC(=O)O)CCN(CC(=O)NC[C@H]2CC[C@H](C(=O)N[C@@H](Cc3c4ccccc4cc4ccccc34)C(=O)NCCCC[C@H](NC(=O)N[C@@H](C[C@H](F)C(=O)O)C(=O)O)C(=O)O)CC2)CCN(CC(=O)O)CC1 [68Ga-HTK04040, metal not drawn]', '0 (no)'),
  ('O=C(O)CCC[C@H](NC(=O)N[C@@H](CCCCNC(=O)[C@H](Cc1c2ccccc2cc2ccccc12)NC(=O)[C@H]1CC[C@H](CNC(=O)CN2CCN(CC(=O)O)CCN(CC(=O)O)CCN(CC(=O)O)CC2)CC1)C(=O)O)C(=O)O [68Ga-HTK03149, metal not drawn]', '0 (no)'),
  ('O=C(O)CCC[C@H](NC(=O)N[C@@H](CCCCNC(=O)[C@H](Cc1c2ccccc2cc2ccccc12)NC(=O)Cc1cccc(CNC(=O)CN2CCN(CC(=O)O)CCN(CC(=O)O)CCN(CC(=O)O)CC2)c1)C(=O)O)C(=O)O [68Ga-HTK04037, metal not drawn]', '0 (no)');

Here's an entry: O=C(O)CSC[C@H](NC(=O)N[C@@H](CCCCNC(=O)[C@H](Cc1c2ccccc2cc2ccccc12)NC(=O)[C@H]1CC[C@H](CNC(=O)CN2CCN(CC(=O)O)CCN(CC(=O)O)CCN(CC(=O)O)CC2)CC1)C(=O)O)C(=O)O [68Ga-HTK03177, metal not drawn] . Is its tissue uptake at 1 h below 4 %ID/g?
0 (no)

What do you get for O=C(O)CN1CCN(CC(=O)O)CCN(CC(=O)NC[C@H]2CC[C@H](C(=O)N[C@@H](Cc3c4ccccc4cc4ccccc34)C(=O)NCCCC[C@H](NC(=O)N[C@@H](C[C@@H](F)C(=O)O)C(=O)O)C(=O)O)CC2)CCN(CC(=O)O)CC1 [68Ga-HTK04033, metal not drawn] ?
1 (yes)

====

procedure-details: in vivo
stated-conditions: male, NODSCID 1L2RγKO, mouse, iv, total radioactivity, Lungs uptake
outcome-measure: tissue uptake at 1 h (%ID/g)
State the answer as a number, implicitly in %ID/g.

INSERT INTO assay_data (molecule, outcome_measure, measured_number) VALUES
  ('O=C(O)CSC[C@H](NC(=O)N[C@@H](CCCCNC(=O)[C@H](Cc1c2ccccc2cc2ccccc12)NC(=O)[C@H]1CC[C@H](CNC(=O)CN2CCN(CC(=O)O)CCN(CC(=O)O)CCN(CC(=O)O)CC2)CC1)C(=O)O)C(=O)O [68Ga-HTK03177, metal not drawn]', 'tissue uptake at 1 h', 0.61),
  ('O=C(O)CCC[C@H](NC(=O)N[C@@H](CCCCNC(=O)[C@H](Cc1ccc2ccccc2c1)NC(=O)[C@H]1CC[C@H](CNC(=O)CN2CCN(CC(=O)O)CCN(CC(=O)O)CCN(CC(=O)O)CC2)CC1)C(=O)O)C(=O)O [68Ga-HTK03169, metal not drawn]', 'tissue uptake at 1 h', 0.38),
  ('O=C(O)CCCCC(NC(=O)N[C@@H](CCCCNC(=O)[C@H](Cc1c2ccccc2cc2ccccc12)NC(=O)[C@H]1CC[C@H](CNC(=O)CN2CCN(CC(=O)O)CCN(CC(=O)O)CCN(CC(=O)O)CC2)CC1)C(=O)O)C(=O)O (single isomer, unassigned) [68Ga-HTK03189A, metal not drawn]', 'tissue uptake at 1 h', 0.68),
  ('O=C(O)CCC[C@H](NC(=O)N[C@@H](CCCCNC(=O)[C@H](Cc1c2ccccc2cc2ccccc12)NC(=O)[C@H]1CC[C@H](CNC(=O)CN2CCN(CC(=O)O)CCN(CC(=O)O)CCN(CC(=O)O)CC2)CC1)C(=O)O)C(=O)O [68Ga-HTK03149, metal not drawn]', 'tissue uptake at 1 h', 0.82),
  ('O=C(O)COC[C@H](NC(=O)N[C@@H](CCCCNC(=O)[C@H](Cc1c2ccccc2cc2ccccc12)NC(=O)[C@H]1CC[C@H](CNC(=O)CN2CCN(CC(=O)O)CCN(CC(=O)O)CCN(CC(=O)O)CC2)CC1)C(=O)O)C(=O)O [68Ga-HTK03187, metal not drawn]', 'tissue uptake at 1 h', 0.52);

Any idea what tissue uptake at 1 h was measured for O=C(O)C[C@H](NC(=O)N[C@@H](CCCCNC(=O)[C@H](Cc1c2ccccc2cc2ccccc12)NC(=O)[C@H]1CC[C@H](CNC(=O)CN2CCN(CC(=O)O)CCN(CC(=O)O)CCN(CC(=O)O)CC2)CC1)C(=O)O)C(=O)O [68Ga-HTK03161, metal not drawn] ?
0.75

Another molecule to check: O=C(O)CCC[C@H](NC(=O)N[C@@H](CCCCNC(=O)[C@H](Cc1c2ccccc2cc2ccccc12)NC(=O)Cc1cccc(CNC(=O)CN2CCN(CC(=O)O)CCN(CC(=O)O)CCN(CC(=O)O)CC2)c1)C(=O)O)C(=O)O [68Ga-HTK04037, metal not drawn]
0.46

====

procedure-details: in vivo
Set-up: species or system mice
stated-conditions: male, NODSCID 1L2RγKO, mouse, iv, total radioactivity, Liver uptake
outcome-measure: tissue uptake at 4 h (%ID/g)
Answer in %ID/g, number only, no unit symbol.

Example entries and their recorded answers appear below.
INSERT INTO assay_data (compound, outcome_measure, unit_spec, measured_number) VALUES
  ('COc1ccc(CCCC(=O)NCC(=O)N[C@@H](CCCCNC(=O)CN2CCN(CC(=O)O)CCN(CC(=O)O)CCN(CC(=O)O)CC2)C(=O)NC[C@H]2CC[C@H](C(=O)N[C@@H](Cc3c4ccccc4cc4ccccc34)C(=O)NCCCC[C@H](NC(=O)N[C@@H](CCCC(=O)O)C(=O)O)C(=O)O)CC2)cc1 [177Lu-HTK03170, metal not drawn]', 'tissue uptake at 4 h', '%ID/g', 1.89),
  ('O=C(O)CCC[C@H](NC(=O)N[C@@H](CCCCNC(=O)[C@H](Cc1c2ccccc2cc2ccccc12)NC(=O)[C@H]1CC[C@H](CNC(=O)[C@H](CCCCNC(=O)CN2CCN(CC(=O)O)CCN(CC(=O)O)CCN(CC(=O)O)CC2)NC(=O)CNC(=O)CCCc2ccc(Cl)cc2)CC1)C(=O)O)C(=O)O [177Lu-HTK03153, metal not drawn]', 'tissue uptake at 4 h', '%ID/g', 3.19),
  ('COc1ccc(CCCC(=O)NCC(=O)N[C@@H](CCCCNC(=O)CN2CCN(CC(=O)O)CCN(CC(=O)O)CCN(CC(=O)O)CC2)C(=O)NC[C@H]2CC[C@H](C(=O)N[C@@H](Cc3c4ccccc4cc4ccccc34)C(=O)NCCCC[C@H](NC(=O)N[C@@H](COCC(=O)O)C(=O)O)C(=O)O)CC2)cc1 [177Lu-HTK04028, metal not drawn]', 'tissue uptake at 4 h', '%ID/g', 2.29),
  ('COc1ccc(CCCC(=O)NCC(=O)N[C@@H](CCCCNC(=O)CN2CCN(CC(=O)O)CCN(CC(=O)O)CCN(CC(=O)O)CC2)C(=O)NC[C@H]2CC[C@H](C(=O)N[C@@H](Cc3c4ccccc4cc4ccccc34)C(=O)NCCCC[C@H](NC(=O)N[C@@H](CSCC(=O)O)C(=O)O)C(=O)O)CC2)cc1 [177Lu-HTK04048, metal not drawn]', 'tissue uptake at 4 h', '%ID/g', 2.16);

Could you now consider this next compound?
Quick one: tissue uptake at 4 h for O=C(O)CCC[C@H](NC(=O)N[C@@H](CCCCNC(=O)[C@H](Cc1c2ccccc2cc2ccccc12)NC(=O)[C@H]1CC[C@H](CNC(=O)CN2CCN(CC(=O)O)CCN(CC(=O)O)CCN(CC(=O)O)CC2)CC1)C(=O)O)C(=O)O [177Lu-HTK03149, metal not drawn] ?
0.11
